Reference for the values: patent US20250333523A1

System under test: T1, Avi/HisMsIL18BPd (recombinant mouse IL-18BP with Avi and poly-His tags) (mouse, biotinylated with BirA on the Avi tag in some assays)
T1 chain: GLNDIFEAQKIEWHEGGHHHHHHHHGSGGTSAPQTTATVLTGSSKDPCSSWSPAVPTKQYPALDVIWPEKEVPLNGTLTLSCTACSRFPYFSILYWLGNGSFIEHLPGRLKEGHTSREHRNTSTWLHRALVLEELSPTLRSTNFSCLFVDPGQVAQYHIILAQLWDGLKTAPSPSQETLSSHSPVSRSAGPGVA
Assay explanation: cell-based or functional assay
Quantity measured: EC50 of IFNγ release, mouse splenocytes (nM)
Give bare numbers, in nM.

{"Binder": "anti-IL18BP antibody BP-07 (antibody, human IgG1, V domains shown) VH: EVQLQQSGPELVKPGASVKISCRASGFTITDYNMDWVRQSHGKSLEWIGNINLNNGGSIYNQKFKGKATLTIDKSSSTAYMELRSLTSEDTAVYYCARSDTTVVASRYYAMDYWGQGTSVTVSS VL: DIVLTQSPASLAMSLGKRATISCRASESVSIIGTNLIHWYQQKPGQPPKLLIYHASNLETGVPVRFSGSGSRTDFTLTIDPVEEDDVAIYYCLQSRKIPPTFGGGTKLEIK", "EC50 of IFNγ release, mouse splenocytes, nM": 8.16}

Below: the item to evaluate.
EC50 of IFNγ release, mouse splenocytes lookup needed for anti-IL18BP antibody BP-15 (antibody, human IgG1, V domains shown) VH: QVQLVQSGAEVKKPGASVKVSCKASGYTFTTYDINWVRQAPGQGLEWMGIINPSGGSTSYAQKFQGRVTMTRDTSTSTVYMELSSLRSEDTAVYYCATGIGELDFDYWGQGTLVTVSS VL: DIQMTQSPSSLSASVGDRVTITCRASQSISSYLNWYQQKPGKAPKLLIYKASTLHNGVPSRFSGSGSGTDFTLTISNLQPEDFATYYCQQAISFPLTFGGGTKVEIK , thanks.
5.85
